Values compiled from PubChem BioAssay (NCI).

# System: SR leukemia
# assayComment: NCI tumour cell line growth inhibition, 48 h

>  <compound>
CCOC(=O)C1=C(C)C(C(=O)OC)/C(=C/c2cccc3cccnc23)C1=O (centres undefined)

>  <TGI>
> 10 µM

$$$$
>  <compound>
C[C@H](CC[C@@H](O)C(C)(C)O)[C@H]1CC[C@@]2(C)[C@@H]3CC=C4[C@@H](CC[C@H](O)C4(C)C)[C@]3(C)C(=O)C[C@]12C

>  <TGI>
> 50 µM

$$$$
>  <compound>
CCN(CC)C(=S)N/N=C/c1ccccn1

>  <TGI>
> 54.8 µM

$$$$
>  <compound>
CN(C)/C=C/c1nnnn1-c1ccc(Cl)cc1

>  <TGI>
29.6 µM

$$$$

====

# Tested on: SNB-75 CNS
# assayComment: NCI tumour cell line growth inhibition, 48 h
Reported TGI values for a set of compounds
reportedEndpoint: TGI

>  <compound>
NC(=O)C(Br)CBr (centres undefined)

>  <measuredOn>
SNB-75 CNS

>  <result>
19.9 µM

$$$$
>  <compound>
O=C(NCCCCNCCCNC(=O)c1ccccc1)c1ccccc1

>  <measuredOn>
SNB-75 CNS

>  <result>
> 100 µM

$$$$
>  <compound>
O=c1[nH]c2cc3cccnc3c(Cl)c2nc1C(F)(F)F

>  <measuredOn>
SNB-75 CNS

>  <result>
90.1 µM

$$$$
>  <compound>
CN1C/C(=C\c2ccc(Cl)cc2)C(=O)/C(=C/c2ccc(Cl)cc2)C1

>  <measuredOn>
SNB-75 CNS

>  <result>
> 100 µM

$$$$

====

# Test system: SNB-19 CNS
# assayComment: NCI tumour cell line growth inhibition, 48 h
Reported TGI values for a set of compounds

>  <compound>
O=C1CCC2(CC1CCSc1ccccc1)OCCO2 (stereo not given)

>  <measuredOn>
SNB-19 CNS

>  <TGI>
> 100 µM

$$$$
>  <compound>
CC(=O)NC1=C(C)C(=O)c2c(nc3n2CCC3O)C1=O (stereo not given)

>  <measuredOn>
SNB-19 CNS

>  <TGI>
> 100 µM

$$$$
>  <compound>
NC(=O)C(Br)CBr (stereo not given)

>  <measuredOn>
SNB-19 CNS

>  <TGI>
29.6 µM

$$$$
>  <compound>
O=C1CCCC2=C1C(c1ccc3c(c1)OCO3)Nc1ccc3ccccc3c12 (stereo not given)

>  <measuredOn>
SNB-19 CNS

>  <TGI>
> 100 µM

$$$$
>  <compound>
COc1cc(/C=C2\N=C(c3ccccc3)N(/N=C3\C(=O)Nc4ccccc43)C2=O)cc(OC)c1OC

>  <measuredOn>
SNB-19 CNS

>  <TGI>
> 100 µM

$$$$
>  <compound>
CS(=O)(=O)OCCN1CCN(C(=O)c2cccc3c(Nc4ccc(S(N)(=O)=O)cc4)c4ccccc4nc23)CC1

>  <measuredOn>
SNB-19 CNS

>  <TGI>
> 72.6 µM

$$$$
>  <compound>
CC1CCc2c(sc3ncnc(N/N=C/c4ccc(Cl)c(Cl)c4)c23)C1 (stereo not given)

>  <measuredOn>
SNB-19 CNS

>  <TGI>
74.3 µM

$$$$
>  <compound>
COc1ccc2c(c1)nc1n2C(N)=Nc2ccccc2S1

>  <measuredOn>
SNB-19 CNS

>  <TGI>
> 100 µM

$$$$
>  <compound>
CNC(=O)c1c(NC(=O)c2cccc(C(F)(F)F)c2)sc2c1CCC(=O)C2

>  <measuredOn>
SNB-19 CNS

>  <TGI>
> 100 µM

$$$$
>  <compound>
O=CN1N=C(c2ccc(Nc3ccnc4cc(Cl)ccc34)cc2)CC1c1ccccc1 (stereo not given)

>  <measuredOn>
SNB-19 CNS

>  <TGI>
> 100 µM

$$$$

====

# Tested on: NCI/ADR-RES ovarian
# assayComment: NCI tumour cell line growth inhibition, 48 h
reportedEndpoint: TGI

>  <compound>
Nc1ccc(N=Nc2ccccc2)c(N)n1

>  <result>
> 100 µM

$$$$
>  <compound>
COc1ccc(/C=C2\CC3C4CC=C5C[C@@H](O)CC[C@]5(C)C4CC[C@]3(C)\C2=N\O)cc1OC (stereo partly specified)

>  <result>
> 100 µM

$$$$
>  <compound>
CC1=C(C(=O)Nc2ccc3[nH]ncc3c2)C(c2ccc(F)cc2)NC(=O)N1 (stereo unspecified)

>  <result>
> 25 µM

$$$$
>  <compound>
CO/C(=N\N=C\c1ccc(Cl)cc1Cl)c1ccncc1

>  <result>
> 10 µM

$$$$
>  <compound>
CCCCCCCCCCCCCC[P+](CCCCCC)(CCCCCC)CCCCCC

>  <result>
> 100 µM

$$$$
>  <compound>
COc1ccc(C(=C(I)c2ccccc2)c2ccc(OC)cc2)cc1

>  <result>
> 100 µM

$$$$

====

# System: IGROV1 ovarian
# assayComment: NCI tumour cell line growth inhibition, 48 h; in the data active = GI50 below about 0.43 µM; inactive = the rest
Outcome codes: active, inactive

>  <molecule>
Fc1ccc(C2CC(c3cccc(Nc4ccncc4)c3)=NN2c2cc(Cl)cc(Cl)c2)cc1 (stereo unspecified)

>  <classLabel>
inactive

$$$$
>  <molecule>
O=[N+]([O-])c1cc(O)c(O)cc1-c1cn2ccsc2n1

>  <classLabel>
inactive

$$$$
>  <molecule>
O=S1(=O)N(Cc2ccccc2)[C@@H](Cc2ccccc2)C2O[C@H]2[C@H](Cc2ccccc2)N1Cc1ccccc1 (stereo partly specified)

>  <classLabel>
inactive

$$$$
>  <molecule>
COc1cc([C@@H]2c3cc4c(cc3C(Br)[C@H]3COC(=O)[C@H]23)OCO4)cc(OC)c1OC (stereo partly specified)

>  <classLabel>
active

$$$$
>  <molecule>
CNC(=O)c1c(NC(=O)c2cccc(C(F)(F)F)c2)sc2c1CCC(=O)C2

>  <classLabel>
active

$$$$
>  <molecule>
CCCCCCOc1ccc(/C=N/NC(N)=S)cc1

>  <classLabel>
inactive

$$$$

====

Reported TGI values for a set of molecules
# Tested on: NCI-H226 lung
# assayComment: NCI tumour cell line growth inhibition, 48 h

>  <molecule>
N#Cc1cccc(C(=O)c2cnn(-c3ccc(F)cc3)c2N)c1

>  <TGI>
> 25 µM

$$$$
>  <molecule>
O=CN1N=C(c2ccc(Nc3ccnc4cc(Cl)ccc34)cc2)CC1c1ccccc1 (stereo unspecified)

>  <TGI>
> 100 µM

$$$$
>  <molecule>
NC(=O)C(Br)CBr (stereo unspecified)

>  <TGI>
27.1 µM

$$$$
>  <molecule>
OCC(O)C1OC2CC1Nc1ccccc1N2 (stereo unspecified)

>  <TGI>
> 100 µM

$$$$
>  <molecule>
COc1cc(C(=O)/C=C/c2c(-c3ccc(F)cc3)nc3sc(C)cn23)cc(OC)c1OC

>  <TGI>
> 100 µM

$$$$
>  <molecule>
O=C(Nc1ccc(Cl)cc1)c1cc2c(cc1O)[nH]c1ccccc12

>  <TGI>
9.46 µM

$$$$
>  <molecule>
CC(=N\O)/C(C)=N/O.CC(=N\O)/C(C)=N/O.CC(=N\O)/C(C)=N/O.CC(=N\O)/C(C)=N/O.[Cu].[Cu]

>  <TGI>
39.2 µM

$$$$
>  <molecule>
O=C(NCCCCNCCCNC(=O)c1ccccc1)c1ccccc1

>  <TGI>
> 100 µM

$$$$
>  <molecule>
O=C(Nc1nnc(-c2ccccc2)o1)C(SC(=S)N1CCOCC1)c1ccccc1 (stereo unspecified)

>  <TGI>
> 100 µM

$$$$
>  <molecule>
O=C(/C=C/c1ccc(-c2ccccc2)cc1)NCc1ccc(C(=O)NCCc2c[nH]c3ccccc23)cc1

>  <TGI>
60.1 µM

$$$$
>  <molecule>
CCNC(=O)/C=C/CCC#Cc1ccc(-c2ccc(-c3cccs3)s2)s1

>  <TGI>
> 100 µM

$$$$
>  <molecule>
Cc1cc2c(cc1C)[n+](=O)c(C(=O)/C=C/c1ccc(Cl)cc1)c(C)n2[O-]

>  <TGI>
> 100 µM

$$$$
>  <molecule>
CCOC(=O)/C(C#N)=C/c1ccc(CO)o1

>  <TGI>
> 100 µM

$$$$
>  <molecule>
CSc1ccc(-c2cc(-c3ccc(NC(=O)CCCN4CCCC4)cc3)nc(-c3ccc(NC(=O)CCCN4CCCC4)cc3)c2)cc1

>  <TGI>
16.1 µM

$$$$
>  <molecule>
CC(=O)NC1=C(C)C(=O)c2c(nc3n2CCC3O)C1=O (stereo unspecified)

>  <TGI>
63.4 µM

$$$$
>  <molecule>
NC(N)=N/N=C/c1c(-c2cccs2)nc2sccn12

>  <TGI>
26 µM

$$$$
>  <molecule>
CC(C)(C)OC(=O)NC(Cc1ccc(O)cn1)C(N)=O (stereo unspecified)

>  <TGI>
> 100 µM

$$$$
>  <molecule>
O=C(CN1CCCCC1)c1ccc2c(c1)Sc1ccccc1O2

>  <TGI>
29 µM

$$$$
>  <molecule>
CCc1ccc(-c2ccc(=O)n(-c3ccc(S(N)(=O)=O)cc3)n2)cc1

>  <TGI>
> 100 µM

$$$$
>  <molecule>
COc1ccc(C(=C(I)c2ccccc2)c2ccc(OC)cc2)cc1

>  <TGI>
> 100 µM

$$$$
>  <molecule>
CS(=O)(=O)N(CCC#N)c1ccc(/C=N/NC(=O)CC(=O)Nc2cccc(Cl)c2)cc1

>  <TGI>
> 100 µM

$$$$
>  <molecule>
Nc1nc2c(c3ncccc13)C(c1ccc(Cl)c(Cl)c1)Cc1ncccc1-2 (stereo unspecified)

>  <TGI>
41.5 µM

$$$$
>  <molecule>
COc1ccc(Oc2nc3ccc(C(F)(F)F)cc3nc2-c2ccccc2)cc1

>  <TGI>
> 100 µM

$$$$
>  <molecule>
Cc1cc(=O)n2nc(CSc3nnc(N)s3)sc2n1

>  <TGI>
> 100 µM

$$$$
>  <molecule>
CN(C)c1ccc(C(=O)c2ccc(N(C)C)c(N)c2)cc1N

>  <TGI>
> 82.5 µM

$$$$
>  <molecule>
Nc1c(C(=O)c2cccc(-c3ccc[n+]([O-])c3)c2)cnn1-c1ccc(F)cc1F

>  <TGI>
> 25 µM

$$$$
